The values you see were collected from ChEMBL document CHEMBL1201862.

System: PC-3
Test: NCI tumour cell line growth inhibition, 48 h
Active and inactive are the calls of the source. Cut-off read from the data, not from the text of the source: active = GI50 up to about 1.1 µM and inactive = higher.
endpoint-name: GI50

{"compound": "CC(=O)OC(Cc1cc(C=C(C(F)(F)F)C(F)(F)F)cc(C)n1)(C(F)(F)F)C(F)(F)F", "meas-value": "1.77 µM (inactive)"}
{"compound": "COC(=O)CCC(=O)c1ccc2c(c1)CCC2", "meas-value": "> 100 µM (inactive)"}
{"compound": "COC1=CC(=O)C2=C(C1=O)[C@H]1CC[C@]3(C)C(=O)CC[C@H]3[C@@H]1CC2", "meas-value": "28.5 µM (inactive)"}
{"compound": "CN(/N=C/C=N/N(C)C1=NCCN1)C1=NCCN1", "meas-value": "> 100 µM (inactive)"}
{"compound": "O=S(=O)(c1ccccc1)n1c(C(O)c2ccncc2)cc2ccccc21 (configuration not stated)", "meas-value": "35.9 µM (inactive)"}
{"compound": "CCc1c(-c2ccc(OC)cc2)c(=O)oc2cc(O)ccc12", "meas-value": "24.7 µM (inactive)"}
{"compound": "CN(C)/C=N/S(=O)(=O)c1nn2c(C=O)c(-c3ccc(-c4ccccc4)cc3)nc2s1", "meas-value": "2 µM (inactive)"}
{"compound": "C/C(=C\\CO)CC/C=C(\\C)CNc1c(F)c(F)c(F)c(F)c1F", "meas-value": "21.1 µM (inactive)"}
{"compound": "Cc1ccc(I)cc1N=C=S", "meas-value": "20.3 µM (inactive)"}
{"compound": "CCC(C)N1CN(c2ccccc2)C2(CCN(CCCC(=O)c3ccc(F)cc3)CC2)C1=O (configuration not stated)", "meas-value": "10.6 µM (inactive)"}
{"compound": "NC(N)=NC(P(=O)(O)O)P(=O)(O)O", "meas-value": "> 100 µM (inactive)"}
{"compound": "O=c1c2ccccc2nc(Nc2cccc(Cl)c2)n1/N=C/C=C/c1ccccc1", "meas-value": "33.7 µM (inactive)"}
{"compound": "COc1cc(C(=O)Oc2c(C(C)=O)sc3c2c(=O)n(-c2ccccc2)c(=S)n3-c2ccccc2)cc(OC)c1OC", "meas-value": "18.2 µM (inactive)"}
{"compound": "COC(=O)C1ON2C(C1C(=O)OC)C(C)(C)N(O)C2(C)C (configuration not stated)", "meas-value": "> 10 µM (inactive)"}
{"compound": "CN(CCN1CCCC1)C1CCc2cc(Cl)c(Cl)cc2C1 (configuration not stated)", "meas-value": "20 µM (inactive)"}
{"compound": "OCCN(CCO)c1ccc2c(C(F)(F)F)cc(C(F)(F)F)nc2n1", "meas-value": "> 100 µM (inactive)"}
{"compound": "CN1C(=O)N/C(=C\\c2ccc(S(=O)(=O)N/N=C\\C(O)C(O)C(O)CO)cc2)C1=O (configuration not stated)", "meas-value": "> 100 µM (inactive)"}
{"compound": "C=C(C(N)=O)c1ccc([N+](=O)[O-])o1", "meas-value": "30.7 µM (inactive)"}
{"compound": "COC(=O)NC1(NC(=O)OC)NC(=O)c2cc(OC)c(OC)cc2N1", "meas-value": "26.1 µM (inactive)"}
{"compound": "O=C(O)c1c(-c2ccccc2)c(=O)[nH]c2ccccc12", "meas-value": "> 100 µM (inactive)"}
{"compound": "O=C(O)/C=C/c1c2ccc(=O)c(O)c-2oc2c(O)c(O)ccc12", "meas-value": "> 100 µM (inactive)"}
{"compound": "N#CC(C#N)=C/C=C/c1c(Cl)cccc1Cl", "meas-value": "1.81 µM (inactive)"}
